Molecular target: T1, hAMY3R (human, UniProt P30988)
T1 sequence 1: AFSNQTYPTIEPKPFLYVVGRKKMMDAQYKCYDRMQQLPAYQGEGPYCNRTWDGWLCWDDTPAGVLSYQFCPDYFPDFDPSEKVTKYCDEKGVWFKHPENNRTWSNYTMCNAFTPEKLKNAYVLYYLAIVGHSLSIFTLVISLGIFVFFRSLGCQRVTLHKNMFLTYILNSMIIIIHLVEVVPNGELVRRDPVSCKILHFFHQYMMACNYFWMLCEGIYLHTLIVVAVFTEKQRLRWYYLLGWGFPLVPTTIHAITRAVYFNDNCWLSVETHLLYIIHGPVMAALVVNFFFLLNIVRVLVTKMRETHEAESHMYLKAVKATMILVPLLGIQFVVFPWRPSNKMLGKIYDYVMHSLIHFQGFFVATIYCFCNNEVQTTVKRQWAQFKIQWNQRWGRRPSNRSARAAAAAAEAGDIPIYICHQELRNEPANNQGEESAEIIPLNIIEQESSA
T1 sequence 2: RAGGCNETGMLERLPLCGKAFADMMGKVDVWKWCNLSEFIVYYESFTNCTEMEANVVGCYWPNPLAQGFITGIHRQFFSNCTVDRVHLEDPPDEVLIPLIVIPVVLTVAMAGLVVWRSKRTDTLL
Assay: cell-based or functional assay
Numbered stars: 1 amine (or outer) side, 2 acyl side, 3 side chain; on linkers, the order of the positions; unused ones are H or OH. Bridge positions count the residues as written; N and C are the ends. Square brackets hold non-standard residues; d marks the D form. Ends that are not written are not given here. * marks the point of attachment. C20 diacid = O=C(O)CCCCCCCCCCCCCCCCCCC(=O)*; γGlu = O=C(O)[C@H](CCC(=O)[*:2])N[*:1]; Hyp = O=C(O)[C@@H]1C[C@@H](O)CN1; Cit = NC(=O)NCCC[C@H](N)C(=O)O
Collected hAMY3R EC50 (cAMP) values appear next to each entry.

- binder: "KCNTATCTVQRLAHQIYFTDKDKDNVAPPTNVGSNG[Hyp]-NH2 (disulfide 2-7 (inferred); ends not checked) [SEQ ID NO: 181]"
  hAMY3R EC50 (cAMP): "0.082 nM"
- binder: "{C20 diacid-γGlu}-KCNTATCTVQRLAHQINQFTDKDKDNVAPPTNVGSNG[Hyp]-NH2 (disulfide 2-7 (inferred); ends not checked) [SEQ ID NO: 11]"
  hAMY3R EC50 (cAMP): "0.007 nM"
- binder: "{C20 diacid-γGlu}-KCNTATCTVQRLAHQIEQFTDKDKDNVAPPTNVGSNG[Hyp]-NH2 (disulfide 2-7 (inferred); ends not checked) [SEQ ID NO: 110]"
  hAMY3R EC50 (cAMP): "0.02 nM"
- binder: "GCRFGTCTVQWLAHQIYQFTDKDKDNVAPRSNVSPQGY [SEQ ID NO: 345]"
  hAMY3R EC50 (cAMP): "0.051 nM"
- binder: "GCRTGTCTVQ[Cit]LAHQIYQFTDKDKDNVAPRSNVGPQG[Hyp]-NH2 (disulfide 2-7 (inferred); ends not checked) [SEQ ID NO: 281]"
  hAMY3R EC50 (cAMP): "0.034 nM"
- binder: "KCNFATCTVQRLAHQIYQFTDKDKDNVAPRTKVGSNG[Hyp]-NH2 (disulfide 2-7 (inferred); ends not checked) [SEQ ID NO: 3]"
  hAMY3R EC50 (cAMP): "0.006 nM"
- binder: "{C20 diacid-γGlu}-KCNTATCTVQRLAEQIYQFTDKDKANVAPPTNVGSNG[Hyp]-NH2 (disulfide 2-7 (inferred); ends not checked) [SEQ ID NO: 108]"
  hAMY3R EC50 (cAMP): "0.019 nM"
- binder: "GCRFGTCTVQRLAHQIYQFTDKDKDNVAPRSNISPQGY [SEQ ID NO: 182]"
  hAMY3R EC50 (cAMP): "0.085 nM"
- binder: "GCRFGTCTVQ[Cit]LAHQIYQFTDKDKDNVAPRTNVSPNGY-NH2 (disulfide 2-7 (inferred); ends not checked) [SEQ ID NO: 271]"
  hAMY3R EC50 (cAMP): "0.01 nM"
- binder: "GCRFGTCTVQRLAHQIYQFTDKDKDNVAPRTKVGPQGY [SEQ ID NO: 368]"
  hAMY3R EC50 (cAMP): "0.015 nM"
- binder: "GCRFGTCTVQRLAHFLYQFTDKDKDNVAPRTKVGPQGY [SEQ ID NO: 369]"
  hAMY3R EC50 (cAMP): "0.017 nM"
- binder: "GCRTGTCTVQRLAHQIYQFTDKDKDNVAPRTKISPNGY [SEQ ID NO: 190]"
  hAMY3R EC50 (cAMP): "0.097 nM"

Reference source: patent US12139520B2
